Here the recorded MFI is given for each entry.
molecular target: T1, human TF on cells (MDA-MB-231, BxPC-3 and other tumor cells with high TF expression) (human, UniProt P13726 33-295); assay: flow cytometry on MDA-MB-231 cells, antibody at 10 µg/mL
T1 construct: whole, on cells; Endogenous expression on tumor cell lines; also called cell surface TF
Write the value in MFI as a bare number.

{"Binder": "TF-mAb-H34 (antibody, V domains shown) VH: EVQLVQSGAEVKKPGESLKISCKGSGYSFTSYWMNWVRQMPGKGLEWMGMIYPADSETRLNQKFKDQATLSVDKSISTAYLQWSSLKASDTAMYYCAREDYGSSDYWGQGTTVTVSS VL: EIVLTQSPATLSLSPGERATLSCSASSSVSYMNWYQQKPGQSPRIWIYGISNLASGVPARFSGSGSGTDFTLTISSLEPEDFAVYYCQQKSSFPWTFGGGTKVEIK", "Unit Of Measure": "MFI", "Reported Measurement": 3270}
{"Binder": "TF-mAb-H41 (antibody, V domains shown) VH: EVQLVQSGAEVKKPGESLKISCKGSGYSFTSYWMNWVKQMPGKGLEWMGMIYPADSETRLNQKFKDKATLSVDKSISTAYLQWSSLKASDTAMYYCAREDYGSSDYWGQGTTVTVSS VL: DIQLTQSPSSLSASVGDRVTITCSASSSVSYMNWYQQKPGKSPKIWIYGISNLASGVPSRFSGSGSGTDFTLTISSLQPEDFATYYCQQKSSFPWTFGGGTKVEIK", "Unit Of Measure": "MFI", "Reported Measurement": 3610}

Now for the binder whose MFI we want.
Task: # input binder: TF-mAb-H37 (antibody, V domains shown) VH: QVQLVQSGAEVKKPGASVKVSCKASGYSFISYWMNWVRQAPGQGLEWIGMIYPADSETRLNQKFKDRATLTVDKSTSTAYMELSSLRSEDTAVYYCAREDYGSSDYWGQGTTVTVSS VL: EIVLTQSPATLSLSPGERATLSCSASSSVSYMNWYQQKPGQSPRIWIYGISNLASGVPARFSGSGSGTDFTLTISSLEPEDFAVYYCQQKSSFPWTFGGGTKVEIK ; wanted: its MFI
Output: 2990
